Tested on: L1210 leukemia ip in BDF1 mice, survival T/C
Test: NCI In Vivo Anticancer Drug Screen. Data for tumor model L1210 Leukemia (intraperitoneal) in B6D2F1 (BDF1) mice
Details: endpoint: mean survival time; dose: 50.0 mg/kg/injection; schedule: Q01DX009 (ip); vehicle: Klucel (hydroxypropylcellulose) (HPC)
Procedure: The antitumor activity of compounds was measured in mice bearing transplantable tumors. Survival or tumor size were measured and the results are expressed as the measurement made in the treated group (T) divided by the measurement made in the vehicle treated control group (C). The tumor model used in this assay is L1210 Leukemia (intraperitoneal) in B6D2F1 (BDF1) mice
Inconclusive results and toxic doses are left out. Cut-off read from the data, not from the text of the source: active = T/C of 150% or more; inactive = T/C below 125%.
Your reply should match one of these outcome classes. active, inactive

[ask] For O=C(CSCC(=O)c1ccccc1)c1ccccc1 , what call appears in the results of this test?
[reply] inactive

[ask] How was O=[N+]([O-])/C=C/c1ccc2ccccc2c1 classified in this test?
[reply] inactive

[ask] Could you check what this test reported for O=C(O)c1ccc(Nc2c3ccccc3nc3ccccc23)cc1 ?
[reply] active

[ask] Can you look up the reported call for O=[N+]([O-])c1cc([N+](=O)[O-])c(Nc2cccc3ccccc23)c([N+](=O)[O-])c1 for me?
[reply] inactive

[ask] For CN(C)c1ccc(Cc2ccc(N(C)C)cc2[N+](=O)[O-])c([N+](=O)[O-])c1 , which call appears in the assay record?
[reply] inactive

[ask] Record request — test call for c1ccc2sc(SSN3CCOCC3)nc2c1
[reply] inactive

[ask] Outcome logged for NC(=O)c1c(CC(=O)O)nn(-c2ccccc2)c1N in this assay:
[reply] inactive

[ask] Write down the call the test reported for this compound. Item: CCNc1nc(NCC)c(Cl)c(C(Cl)(Cl)Cl)n1
[reply] inactive

[ask] Answer briefly: the call reported for Cc1cccc(Cl)c1NC(=O)Nc1cccc(C(=O)O)c1 in this assay.
[reply] inactive

[ask] Entry O=C(O)C1C2CCCCCCC21 (configuration not stated) : call = ?
[reply] inactive

[ask] Please indicate how the test categorized O=C(CCCN1CCC(O)(c2cccc(C(F)(F)F)c2)CC1)c1ccc(F)cc1 .
[reply] inactive

[ask] What classification did OC/C(=C/c1ccccc1)c1ccccc1 end up with in this test?
[reply] inactive

[ask] Assay result, entry Nc1nc(=S)c2[nH]c(N=Nc3ccc(S(N)(=O)=O)cc3)nc2[nH]1 — outcome?
[reply] inactive

[ask] Which outcome was assigned to CS(C)=O.CS(C)=O.[Cl][Sn]([Cl])([Cl])[Cl] in this test?
[reply] inactive

[ask] Write down the call the test reported for this compound. Item: COc1cccc2c(=O)c(C(=O)O)c[nH]c12
[reply] inactive

[ask] Assay result, entry CN(C)C(=O)C1Cc2ccccc2CC1C(=O)N(C)C (configuration not stated) — outcome?
[reply] inactive

[ask] Hello, I am checking results. What call was entered for CC(C)=CCC/C(C)=C/CC(N)Cc1ccccc1 (configuration not stated) ?
[reply] inactive

[ask] Status in this test for CC1CCC(C(C)C)C(N(C)Cc2cc(Br)cc(Br)c2O)C1 (configuration not stated) ?
[reply] inactive

[ask] Just curious, what result did N#CC(C(N)=O)C1CC(=O)Oc2ccccc21 (configuration not stated) get here?
[reply] inactive

[ask] Per the assay record, what outcome was assigned to COc1ccc(C=O)cc1OCCOc1cc(C=O)ccc1OC ?
[reply] inactive

[ask] What was the test verdict on CC(C)=CC(=O)OC1C2C(C)C(=O)OC2C(O)C(C)C2C=CC(=O)C21C (configuration not stated) ?
[reply] inactive

[ask] So what was the verdict on Nc1nc2ccc([N+](=O)[O-])cc2s1 in this test?
[reply] inactive

[ask] Given CS(=O)(=O)CCS(=O)(=O)c1cccs1 , state the outcome it received in this test.
[reply] inactive

[ask] Dear all, I need the recorded test outcome for O=C(NCc1ccco1)c1cccc(F)c1 , thank you.
[reply] inactive

[ask] Answer briefly: the call reported for CC12CCC(C(=N/O)/C1=N\O)C2(C)C (configuration not stated) in this assay.
[reply] inactive

[ask] Assay outcome for CC(=O)OC1CC2c3ccccc3C1c1cccc[n+]12 (configuration not stated) : what was it?
[reply] inactive

[ask] # outcome recorded in this test, key = CN(C)c1ccc(C=O)cc1[N+](=O)[O-]
[reply] inactive
